- protocol.summary: viability gain of MRP-1-high H69AR cells under doxorubicin, pilot screen, MRP-1 activator project, CellTiter-Glo, duplicate (AID 807);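 note: compound pretreatment 18-22 h then 72 h combined with doxorubicin; 0% = doxorubicin alone and 100% = vehicle without doxorubicin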
- measurement.conditions: H69AR viability with doxorubicin, CellTiter-Glo luminescence; at 10 µM; stronger effect = higher value
viability increase reference
Give a bare numeral; the unit % is implied.

Known viability increase results, listed for orientation:
Qu. Please supply the value of reported viability increase for the item CC(C)C12CN3CC(C(C)C)(CN(C1)C31C(=O)Nc3ccccc31)C2=O (stereo not drawn)
Ans. -0.6

Qu. Please supply the value of reported viability increase for the item "COCCOC(=O)c1c(C)oc2ccc(OCC=C(C)C)cc12"
Ans. 3.27

Qu. Please supply the value of reported viability increase for the item "Fc1cc2nc(-c3ccncc3)[nH]c2cc1F"
Ans. -1.54

Qu. Please supply the value of reported viability increase for the item "CCOC(=O)COc1cccc2c(=O)n(CC(=O)N3CCc4ccccc43)ccc12"
Ans. -2.89

Qu. Please supply the value of reported viability increase for the item COc1ccc(N2C(=O)CCC(C(=O)N3CCC(C(N)=O)CC3)C2c2ccc(F)cc2)cc1 (stereo not drawn)
Ans. -0.33

Qu. Please supply the value of reported viability increase for the item "COc1ccc(CCNC(=O)c2oc3ccc(S(=O)(=O)N4CCOCC4)cc3c2C)cc1OC"
Ans. -4.32

Qu. Please supply the value of reported viability increase for the item "O=C(CNC(=O)Cn1ccc2ccccc2c1=O)NCCCN1CCCCCC1"
Ans. -2.48

Qu. Please supply the value of reported viability increase for the item "COc1ccc(C)c2sc(=NC(=O)C(C)C)n(C)c12"
Ans. -3.89

Qu. Please supply the value of reported viability increase for the item "CCC(=O)NCCn1c(C)cc2ccccc21"
Ans. -0.96

Qu. Please supply the value of reported viability increase for the item "CCN(CC)S(=O)(=O)c1ccc2oc(C(=O)NCc3ccc(F)cc3)c(C)c2c1"
Ans. -6.59

Further cases:
Qu. Please supply the value of reported viability increase for the item "Cc1ccnc(Sc2nc3c(c(=O)[nH]c(=O)n3C)n2CCCc2ccccc2)n1"
Ans. -2.18

Qu. Please supply the value of reported viability increase for the item COc1ccc(OC)c(NC(=O)C2CCCN(S(=O)(=O)c3cccc4cccnc34)C2)c1 (stereo not drawn)
Ans. -3.24

Qu. Please supply the value of reported viability increase for the item "CNC(=O)c1c(NC(=O)c2nc3ccccc3s2)sc2c1CCC2"
Ans. -3.81

###

- protocol.summary: reducers of endogenous Her2 protein level, primary screen, SKBR3 breast tumor cells, AlphaScreen, ATP viability (AID 461);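 note: percent of carrier control wells set as 100% viability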
- measurement.conditions: 18-24 h, measured here: SKBR3 viability, ATP luminescence, at 10 µM
viability reference
Give a bare numeral; the unit % is implied.

Known viability results, listed for orientation:
Qu. Please supply the value of reported viability for the item "COc1cccc(CNC(=O)C2CCN(C(=O)N(C)C)CC2)c1"
Ans. 97.5

Qu. Please supply the value of reported viability for the item "O=C(Nn1c(C2CC2)nc2ccccc2c1=O)c1ccco1"
Ans. 109

Qu. Please supply the value of reported viability for the item "CCOC(=O)C1CCN(C(=O)C2CCN(S(=O)(=O)c3cc(Cl)ccc3Cl)CC2)CC1"
Ans. 92

Qu. Please supply the value of reported viability for the item "CCOC(=O)c1[nH]c(C)c(C(=O)Nc2ccc(C)c(Cl)c2)c1C"
Ans. 94

Qu. Please supply the value of reported viability for the item "COc1ccccc1N1CCN(C(=O)CCNS(=O)(=O)c2ccc3c(c2)CCC(=O)N3)CC1"
Ans. 89

Further cases:
Qu. Please supply the value of reported viability for the item "CC(=O)N1CCc2cc(S(=O)(=O)CCC(=O)N3CCN(c4ccccn4)CC3)ccc21"
Ans. 91.5

Qu. Please supply the value of reported viability for the item "CCn1c(C(=O)N2CCC(C(=O)NCc3ccc4c(c3)OCO4)CC2)cc2sccc21"
Ans. 89

Qu. Please supply the value of reported viability for the item "CSc1ccccc1NC(=O)c1c(Br)cnn1C"
Ans. 89.5

Qu. Please supply the value of reported viability for the item "COC(=O)Cc1csc(N)n1"
Ans. 95

Qu. Please supply the value of reported viability for the item "CCOc1ccc2ccccc2c1/C=N/n1cncn1"
Ans. 99.5

Qu. Please supply the value of reported viability for the item CCOc1cc(C(=O)NCC2CCCO2)cc(OCC)c1OCC (stereo unspecified)
Ans. 100

Sourced from PubChem BioAssay
